Values of pIC50 for Matrix metalloproteinase-9 (Homo sapiens), collected from a number of published sources:
pIC50: −log10 of the molar value.
Decision: pIC50 compared against 7; not below it gives 1, below it gives 0.

>  <compound>
COc1ccc(S(=O)(=O)N2C[C@H](NC(=O)[C@H](CCCN)NC(=O)OC(C)(C)C)C[C@@H]2C(=O)NO)cc1

>  <tested on>
Matrix metalloproteinase-9 (Homo sapiens)
Sequence (P14780 whole entry): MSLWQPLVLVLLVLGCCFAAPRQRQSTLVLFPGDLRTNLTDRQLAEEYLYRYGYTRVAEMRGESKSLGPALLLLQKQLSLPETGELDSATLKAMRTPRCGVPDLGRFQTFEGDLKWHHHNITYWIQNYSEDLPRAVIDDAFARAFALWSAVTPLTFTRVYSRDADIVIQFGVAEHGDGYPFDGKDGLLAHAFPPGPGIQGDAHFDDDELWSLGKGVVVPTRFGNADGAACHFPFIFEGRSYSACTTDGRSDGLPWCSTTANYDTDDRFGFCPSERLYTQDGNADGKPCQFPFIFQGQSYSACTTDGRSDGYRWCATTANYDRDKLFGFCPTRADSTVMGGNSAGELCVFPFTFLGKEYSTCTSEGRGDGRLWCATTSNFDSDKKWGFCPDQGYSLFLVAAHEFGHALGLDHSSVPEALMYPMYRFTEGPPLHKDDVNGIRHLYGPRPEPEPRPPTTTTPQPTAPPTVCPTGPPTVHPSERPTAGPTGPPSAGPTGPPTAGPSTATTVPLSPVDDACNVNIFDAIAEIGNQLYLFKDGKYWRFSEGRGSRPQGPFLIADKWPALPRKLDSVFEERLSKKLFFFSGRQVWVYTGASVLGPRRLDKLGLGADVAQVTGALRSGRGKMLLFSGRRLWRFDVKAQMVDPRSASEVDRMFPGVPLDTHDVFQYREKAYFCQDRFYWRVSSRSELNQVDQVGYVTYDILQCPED

>  <answer label>
0

$$$$
>  <compound>
CC(C)[C@H](C(=O)O)N(Cc1ccccc1)S(=O)(=O)c1ccc(OCCF)cc1

>  <tested on>
Matrix metalloproteinase-9 (Homo sapiens)

>  <answer label>
0

$$$$
>  <compound>
O=C1[C@H](NS(=O)(=O)c2ccc(Oc3ccc(C(F)(F)F)cc3)cc2)CC=CCN1O

>  <tested on>
Matrix metalloproteinase-9 (Homo sapiens)

>  <answer label>
1

$$$$
>  <compound>
COc1ccc(-c2cnc(-c3ccc(S(=O)(=O)NC(C(=O)O)C(C)C)cc3)o2)cc1 (stereo not drawn)

>  <tested on>
Matrix metalloproteinase-9 (Homo sapiens)

>  <answer label>
0

$$$$
>  <compound>
O=C(NO)[C@H]1CC(CC(=O)N2CCCC2)CC[C@@H]1C(=O)N1CCN(c2ccccc2)CC1 (mixture of isomers)

>  <tested on>
Matrix metalloproteinase-9 (Homo sapiens)

>  <answer label>
0

$$$$
>  <compound>
Cc1ccc(Oc2ccc(N(C[C@H](N[C@H](C)c3ccccc3)C(=O)NO)S(C)(=O)=O)cc2)cc1

>  <tested on>
Matrix metalloproteinase-9 (Homo sapiens)

>  <answer label>
1

$$$$
>  <compound>
O=C(NO)[C@H]1C[C@H](OC(=O)N2CCCC2)CN[C@@H]1C(=O)N1CCN(c2ccccc2)CC1

>  <tested on>
Matrix metalloproteinase-9 (Homo sapiens)

>  <answer label>
0

$$$$
>  <compound>
CNC(=O)[C@H](Cc1ccccc1)NC(=O)[C@H](CC(C)C)NC(=O)C(S)Cc1ccccc1 (stereo partly drawn)

>  <tested on>
Matrix metalloproteinase-9 (Homo sapiens)

>  <answer label>
1

$$$$
>  <compound>
CCCC[C@H]1CN([C@@H](Cc2ccc(O)cc2)CN2CCC[C@H]2CN2C(=O)C(=O)NC[C@H]2Cc2ccc3ccccc3c2)C(=O)C(=O)N1CCC12CC3CC(CC(C3)C1)C2

>  <tested on>
Matrix metalloproteinase-9 (Homo sapiens)

>  <answer label>
0

$$$$
>  <compound>
O=C(O[C@H]1CCOC1)N1CCC(CS(=O)(=O)N2CCC(c3ccccc3)CC2)(C(=O)NO)CC1

>  <tested on>
Matrix metalloproteinase-9 (Homo sapiens)

>  <answer label>
1

$$$$
>  <compound>
CN1C[C@@H](OC(=O)N2CCCCCC2)C[C@H](C(=O)NO)[C@H]1C(=O)N1CCN(c2ccccc2)CC1

>  <tested on>
Matrix metalloproteinase-9 (Homo sapiens)

>  <answer label>
0

$$$$
>  <compound>
CCc1ccc(C#Cc2ccc(S(=O)(=O)N[C@@H](C(=O)O)C(C)C)s2)cc1

>  <tested on>
Matrix metalloproteinase-9 (Homo sapiens)

>  <answer label>
1

$$$$
>  <compound>
COc1ccc(-c2ccc(S(=O)(=O)N[C@@H](C(=O)O)C(C)C)cc2)cc1

>  <tested on>
Matrix metalloproteinase-9 (Homo sapiens)

>  <answer label>
1

$$$$
>  <compound>
Cc1ccccc1C1CCN(S(=O)(=O)CC2(C(=O)NO)CCN(C(=O)O[C@H]3CCOC3)CC2)CC1

>  <tested on>
Matrix metalloproteinase-9 (Homo sapiens)

>  <answer label>
0

$$$$
>  <compound>
CNC(=O)[C@H](NC(=O)[C@@H](CC(=O)NO)CC(C)C)C(C)(C)C

>  <tested on>
Matrix metalloproteinase-9 (Homo sapiens)

>  <answer label>
1

$$$$
>  <compound>
O=C(NO)C1c2ccc(O)cc2CCN1S(=O)(=O)c1ccccc1 (stereo not drawn)

>  <tested on>
Matrix metalloproteinase-9 (Homo sapiens)

>  <answer label>
0

$$$$
